# credit: the supplement of paper PMC10307832

System: NCI-H1915
assayOverview: relative viability (nuclei count vs DMSO), 5 days (fraction); higher = more cells survive
testContext: first compound 0.08 µM
Measured relative viability by item
Respond with the number and no other words.

molecule	recordedNumber
O=c1cc(-c2cccc3c2Sc2ccccc2S3)oc(N2CCOCC2)c1 + Cc1nc(NC(=O)N2CCC[C@H]2C(N)=O)sc1-c1ccnc(C(C)(C)C(F)(F)F)c1 [Alpelisib] (partner 2 µM)	1.15

Request: # query: relative viability | item COc1nc(C)cnc1NS(=O)(=O)c1cccnc1-c1ccc(-c2nnco2)cc1 [Zibotentan] + Cc1nc(NC(=O)N2CCC[C@H]2C(N)=O)sc1-c1ccnc(C(C)(C)C(F)(F)F)c1 [Alpelisib] (partner 2 µM) | system: NCI-H1915
Result: 1.14

Request: // repeat for O=c1cc(-c2cccc3c2Sc2ccccc2S3)oc(N2CCOCC2)c1 + NC(=O)Nc1cc(-c2cccc(F)c2)sc1C(=O)N[C@H]1CCCNC1 [AZD7762] (partner 0.2 µM) and report
Result: 0.716
